Taken from the supplement of paper PMC4166925.

System: SpTbr T-box DNA-binding domain (GST fusion);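 further: protein at 200 nM in PBS on universal double-stranded arrays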
Sequence: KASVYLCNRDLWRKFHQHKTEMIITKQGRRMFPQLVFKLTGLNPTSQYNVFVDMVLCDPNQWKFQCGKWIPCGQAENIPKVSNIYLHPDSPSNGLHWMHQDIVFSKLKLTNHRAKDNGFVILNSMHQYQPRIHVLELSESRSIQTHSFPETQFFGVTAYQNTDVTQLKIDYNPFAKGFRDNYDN
Experiment: PBM E-score of 8-mer (E-score (dimensionless, -0.5 to 0.5)); higher = stronger binding preference
Details: the construct has about 5 more residues each side
The full ranking holds about 33,000 sequences; the median of “E-score (dimensionless, -0.5 to 0.5)” is about -0.046, and the highest 2% start at about 0.36. The list comes from a sample in which the highest values are over-represented; it also holds close analogues and randomly drawn sequences.
Using PBM E-score of 8-mer as the sorting value, the categories are small value (below 0.08), mid value (0.08 to below 0.3), large value (0.3 or more)

{"columns": ["MACROMOLECULE_SEQUENCE", "QUALITATIVE_LABEL"],
 "data": [
  ["AAGAAGTA", "small value"]
]}

Category of GCCACGGC : small value

Category of AGGTGCTG : large value

Category of AAGTGAGA : large value

Category of AGGTGAGG : large value

Category of GACGGGCC : small value

Category of GCCCCATA : small value

Category of ATGTGCTG : mid value

Category of ACGAGCTA : small value

Category of GGGGGTGA : mid value

====

Recorded PBM E-score of 8-mer for the following sequences
System: SpTbr T-box DNA-binding domain (GST fusion);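 further: protein at 200 nM in PBS on universal double-stranded arrays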
Sequence: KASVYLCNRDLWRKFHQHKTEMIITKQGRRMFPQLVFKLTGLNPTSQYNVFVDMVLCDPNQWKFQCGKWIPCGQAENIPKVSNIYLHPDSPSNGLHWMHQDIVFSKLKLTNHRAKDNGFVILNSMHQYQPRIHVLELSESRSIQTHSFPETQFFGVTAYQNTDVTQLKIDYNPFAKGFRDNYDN
Test: PBM E-score of 8-mer (E-score (dimensionless, -0.5 to 0.5)); higher = stronger binding preference
Settings: target sequence: T-box / the construct has about 5 more residues each side
Whole data set: some 33,000 sequences, median “E-score (dimensionless, -0.5 to 0.5)” near -0.046, cut for the highest 2% near 0.36. This excerpt belongs to a sample that is enriched for the highest values.

Known PBM E-score of 8-mer results, listed for orientation:
{"columns": ["MACROMOLECULE_SEQUENCE", "ASSAY_TARGET", "PBM E-score of 8-mer"],
 "data": [
  ["GCACGCGA", "SpTbr T-box DNA-binding domain (GST fusion)", 0.186],
  ["AGTGAGAC", "SpTbr T-box DNA-binding domain (GST fusion)", 0.169],
  ["GGTGAGAA", "SpTbr T-box DNA-binding domain (GST fusion)", 0.475]
]}

Entry GGATCCAC : reported PBM E-score of 8-mer = ? -0.00958

Entry CCGACACC : reported PBM E-score of 8-mer = ? 0.438

====

Recorded PBM E-score of 8-mer for the following sequences
Test system: SpTbr T-box DNA-binding domain (GST fusion);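 further: protein at 200 nM in PBS on universal double-stranded arrays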
Sequence: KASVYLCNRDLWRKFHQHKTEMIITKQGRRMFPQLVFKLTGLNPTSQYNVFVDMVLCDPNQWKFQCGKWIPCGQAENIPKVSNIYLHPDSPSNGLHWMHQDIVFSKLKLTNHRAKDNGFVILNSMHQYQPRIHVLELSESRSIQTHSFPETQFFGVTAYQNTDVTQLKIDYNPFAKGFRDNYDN
Experiment: PBM E-score of 8-mer (E-score (dimensionless, -0.5 to 0.5)); Tbr is Tbrain of the sea star Patiria miniata (Pm) or the sea urchin Strongylocentrotus purpuratus (Sp); higher = stronger binding preference
Conditions: target sequence: T-box / the construct has about 5 more residues each side
The full ranking holds about 33,000 sequences; the median of “E-score (dimensionless, -0.5 to 0.5)” is about -0.046, and the highest 2% start at about 0.36. Many of the other results were omitted from the sample, so the highest values are more common in it than they were.
Reply briefly: the number, and no unit.

{"columns": ["MACROMOLECULE_SEQUENCE", "READOUT", "OBSERVED_RESULT"],
 "data": [
  ["GATAACGC", "PBM E-score of 8-mer", 0.288]
]}

Entry AGCTAGCG : reported PBM E-score of 8-mer = ? 0.0935

Entry CTGCGATA : reported PBM E-score of 8-mer = ? 0.0968

Entry GTGCGACA : reported PBM E-score of 8-mer = ? 0.398

Entry CTGCGAGA : reported PBM E-score of 8-mer = ? 0.185

Entry ACTGGTAC : reported PBM E-score of 8-mer = ? -0.0857

Entry GTGCGAAA : reported PBM E-score of 8-mer = ? 0.477

Entry GATAACAA : reported PBM E-score of 8-mer = ? 0.27

Entry TGTCAACA : reported PBM E-score of 8-mer = ? 0.405

Entry TCATTGAA : reported PBM E-score of 8-mer = ? -0.129

Entry CGTCAACA : reported PBM E-score of 8-mer = ? 0.356

Entry GTGCGATA : reported PBM E-score of 8-mer = ? 0.427

Entry AATCTCTA : reported PBM E-score of 8-mer = ? -0.14

Entry CCACACTA : reported PBM E-score of 8-mer = ? 0.279

Entry ATGCGACA : reported PBM E-score of 8-mer = ? 0.285

Entry CATAACAC : reported PBM E-score of 8-mer = ? 0.405

Entry CTGCGAAA : reported PBM E-score of 8-mer = ? 0.342

Entry ACCCTTGA : reported PBM E-score of 8-mer = ? -0.0396

Entry ACACACTC : reported PBM E-score of 8-mer = ? 0.307

Entry CTGCGACA : reported PBM E-score of 8-mer = ? 0.198

Entry CCACACCC : reported PBM E-score of 8-mer = ? 0.414

Entry TTGCGAAA : reported PBM E-score of 8-mer = ? 0.33
